Test system: HT-29 (colon cancer cell line)
TEST NAME: Antiproliferative assay (MTT), HT-29
Format: cell-based
CONDITION SET: Homo sapiens, read-out: Antiproliferative Activity IC50 ± SEM (µM) HT-29
READOUT: IC50 (µM)

COc1ccc(C2CC(c3ccc(OCC(=O)Nc4ccc(C5=NNC(c6ccc(F)cc6)C5)cc4)cc3)=NN2)cc1 (stereo not shown) [Compound 16]	3.9

P: COc1ccc(C2CC(c3ccc(OCC(=O)Nc4ccc(C5=NNC(c6ccc(C)cc6C)C5)cc4)cc3)=NN2)cc1 (stereo not shown) [Compound 13]
Q: COc1cccc2c1C(=O)c1c(O)c3c(c(O)c1C2=O)C[C@@](O)(C(=O)CO)C[C@@H]3O[C@H]1C[C@H](N)[C@H](O)[C@H](C)O1 [Doxorubicin, reference compound]
R: COc1ccc(C2CC(c3ccc(NC(=O)COc4ccc(C5=NNC(c6ccc(Cl)cc6)C5)cc4)cc3)=NN2)cc1 (stereo not shown) [Compound 9]
Request: Put these in order: smallest IC50 first, largest last. List each label, following the requested order.
Response: Q, R, P
